# experiment_notes: melting temperature; fluorescence melt of hairpins on a sequencing array, two-state fit, raised by 9.35 °C to match UV melts
# assay_setup: sodium 0.088 M
Recorded Tm split into classes range 1: < 40 °C; range 2: ≥ 40 °C and < 50 °C; range 3: ≥ 50 °C

• GGTCACGGAAACGTGATC (.(((((....))))).) = range 3
• GTACCCCGAAAGGGCTAC (((.(((....))).))) = range 1
• GAGTAGAAATACTC (((((....))))) = range 1

Dear colleague, I would appreciate it if you could identify the bin for GTTTTCGAAAGAACAAC ((((((....))).))) and reply at your convenience.
range 1

What do you have for GGGGACGAAAGTCGCCC ((((((....))).))) ?
range 3

What do you have for GATGCCGAAAGGCCTATC ((((((....)))..))) ?
range 1

What do you have for GACGGCGAAAGCCTTGTC ((((((....)))..))) ?
range 2

What do you have for GATCTTTCCGAAGATC ((((((....)))))) ?
range 2

What do you have for GCGGTAGAAATACCGC ((((((....)))))) ?
range 3

What do you have for GCGTGGGAACGC ((((....)))) ?
range 3
